The reported measurements were obtained from ChEMBL document CHEMBL3886685.

List of pIC50 tested on Cathepsin S (Homo sapiens).
pIC50: −log10 of the molar value.
parameter: pIC50

Examples with answers:
CCN1CCCC(COc2ccc(-c3nc(C#N)nc4c3ccn4C)cc2C(F)(F)F)C1 (stereo not drawn) : 8.52
N#Cc1nc(-c2ccc(OCCC3CCN(CCO)CC3)c(C(F)(F)F)c2)c2ccn(CC3CCCO3)c2n1 (stereo not drawn) : 8.49
CC(C)N1CCC(CCOc2ccc(-c3nc(C#N)nc4c3ccn4CC3CCOC3)cc2C#N)CC1 (stereo not drawn) : 8.37
CCN1CCC(CCOc2ccc(-c3nc(C#N)nc4c3ccn4CC)cc2C(F)(F)F)CC1 : 8.43
CCN1CCC(CCOc2ccc(-c3nc(C#N)nc4c3ncn4CC3CCOC3)cc2C(F)(F)F)CC1 (stereo not drawn) : 8.66
CN1CCC(C(=O)N2CCC(CCOc3ccc(-c4nc(C#N)nc5c4ncn5C)cc3C(F)(F)F)CC2)C1 (stereo not drawn) : 8.64
CN1CCC[C@H]1C(=O)N1CCC(CCOc2ncc(-c3nc(C#N)nc4c3ncn4CC3CCOC3)cc2C(F)(F)F)CC1 (stereo partly drawn) : 8.85
Cn1cnc2c(-c3ccc(OCCC4CCN(CC(=O)N5CCC(F)(F)C5)CC4)c(C(F)(F)F)c3)nc(C#N)nc21 : 8.62

(1) N#Cc1nc(-c2ccc(OCCC3CCNCC3)c(C#N)c2)c2ccn(CC3CCOC3)c2n1 (stereo not drawn)
(2) CCN1CCC(CCOc2ccc(-c3nc(C#N)nc4c3ccn4CC(N)=O)cc2C(F)(F)F)CC1
(3) CCN1CCC(CCOc2ccc(-c3nc(C#N)nc4c3ncn4C)cc2C(F)(F)F)CC1
# desc sort on pIC50 across 3 molecules # output: labels, in the requested order
3, 2, 1

----------
experimentalSystem: Cathepsin S (Homo sapiens)
pIC50: −log10 of the molar value.
parameter: pIC50

Examples with answers:
Cn1ccc2c(-c3ccc(OCCC4CCNC4)c(C(F)(F)F)c3)nc(C#N)nc21 (centres undefined) : 8.89
CN1CCC[C@H]1C(=O)N1CCC(CCOc2ccc(-c3nc(C#N)nc4c3ccn4C3COC3)cc2C(F)(F)F)CC1 : 8.48
Cn1cnc2c(-c3ccc(OCC(=O)N4CCNCC4)c(C(F)(F)F)c3)nc(C#N)nc21 : 8.05
CN1CCC[C@@H]1C(=O)N1CCC(CCOc2ncc(-c3nc(C#N)nc4c3ncn4C)cc2C(F)(F)F)CC1 : 9.00
CN1CCC[C@H]1C(=O)N1CCC(CCOc2ccc(-c3nc(C#N)nc4c3ccn4C)cc2C(F)(F)F)C1 (some centres undefined) : 8.64

(I) CCN1CC(COc2ccc(-c3nc(C#N)nc4c3ccn4C)cc2C(F)(F)F)C1
(II) Cn1cnc2c(-c3ccc(OCCC4CCN(CCO)CC4)c(C(F)(F)F)c3)nc(C#N)nc21
Response body: label of entry with the larger pIC50; valid values I , II . Field: selected label. Fill in the label of the entry you choose.
II

----------
experimentalSystem: Cathepsin S (Homo sapiens, UniProt P25774)
Sequence (P25774 whole entry): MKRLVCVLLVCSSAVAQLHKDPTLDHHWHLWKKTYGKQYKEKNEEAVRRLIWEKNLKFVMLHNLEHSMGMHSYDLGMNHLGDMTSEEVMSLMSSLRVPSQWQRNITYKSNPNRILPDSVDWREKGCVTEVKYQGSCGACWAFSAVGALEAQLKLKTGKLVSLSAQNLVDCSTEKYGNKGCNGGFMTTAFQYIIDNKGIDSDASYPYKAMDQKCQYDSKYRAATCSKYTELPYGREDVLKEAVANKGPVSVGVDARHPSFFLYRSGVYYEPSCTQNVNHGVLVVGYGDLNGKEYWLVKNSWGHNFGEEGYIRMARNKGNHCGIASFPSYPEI
parameter: IC50 (nM)

Examples with answers:
Cn1cnc2c(-c3ccc(OCCC4CCN(C(=O)CO)CC4)c(C(F)(F)F)c3)nc(C#N)nc21 : 6.1
Cn1ccc2c(-c3ccc(SCCC4CCNCC4)c(C(F)(F)F)c3)nc(C#N)nc21 : 1.7

(A) CCN1CCC(CCOc2ncc(-c3nc(C#N)nc4c3ccn4CC3CCOCC3)cc2C(F)(F)F)CC1
(B) Cn1cnc2c(-c3cc(F)c(OCCC4CCNCC4)c(C(F)(F)F)c3)nc(C#N)nc21
Response body: label of entry with the larger IC50; valid values A , B . Field: selected label. Fill in the label of the entry you choose.
A
(A: 3.2 nM, B: 1.9 nM)

(P) CCOc1ccc(-c2nc(C#N)nc3c2ccn3CC(=O)NC2CCN(C)CC2)cc1C(F)(F)F
(Q) Cn1cnc2c(-c3ccc(OCCC4CCN(CC(=O)N5CCCC5)CC4)c(C(F)(F)F)c3)nc(C#N)nc21
Given the listed items, does P or Q have the lesser reported IC50? Field: selected label. Fill in the label of the entry you choose.
Q
